Target: T1, human TF ECD-His (hTF-his) (human, UniProt P13726 33-251)
T1 construct: also called bio-hTF-his; human TF-His protein
Assay: SPR Biacore T200, antibody on Protein A chip, TF-His as analyte, 1:1 model
Entries annotated with measured kon
Answer as a quantity: numeral, then unit.

{"columns": ["Binder", "Recorded Result"],
 "data": [
  ["hu67-12 (antibody, human IgG1, kappa, V domains shown) VH: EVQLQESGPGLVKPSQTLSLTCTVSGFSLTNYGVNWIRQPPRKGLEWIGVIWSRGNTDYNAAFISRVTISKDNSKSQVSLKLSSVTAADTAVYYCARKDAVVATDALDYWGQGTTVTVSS VL: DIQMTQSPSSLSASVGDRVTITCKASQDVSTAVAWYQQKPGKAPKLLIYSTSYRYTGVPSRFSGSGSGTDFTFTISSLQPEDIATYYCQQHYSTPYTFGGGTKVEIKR", "39200 M⁻¹ s⁻¹"],
  ["hu67-1 (antibody, human IgG1, kappa, V domains shown) VH: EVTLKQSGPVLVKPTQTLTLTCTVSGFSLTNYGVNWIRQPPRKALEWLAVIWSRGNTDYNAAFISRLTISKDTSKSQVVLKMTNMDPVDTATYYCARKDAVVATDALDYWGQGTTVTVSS VL: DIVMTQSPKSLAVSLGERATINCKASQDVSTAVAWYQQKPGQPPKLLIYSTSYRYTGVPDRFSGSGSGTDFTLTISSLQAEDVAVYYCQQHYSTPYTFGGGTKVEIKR", "42900 M⁻¹ s⁻¹"]
]}

Next binder, kon to be filled in.
Ask | // lookup kon for hu67-15 (antibody, human IgG1, kappa, V domains shown) VH: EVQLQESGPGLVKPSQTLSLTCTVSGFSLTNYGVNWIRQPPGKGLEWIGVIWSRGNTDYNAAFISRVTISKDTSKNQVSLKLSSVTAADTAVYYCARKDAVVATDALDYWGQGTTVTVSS VL: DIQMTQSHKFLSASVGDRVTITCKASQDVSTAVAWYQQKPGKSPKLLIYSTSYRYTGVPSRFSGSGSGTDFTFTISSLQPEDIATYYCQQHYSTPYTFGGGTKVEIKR
Reply | 33400 M⁻¹ s⁻¹
